Molecular target: T1, 4H491-bH
T1 chain: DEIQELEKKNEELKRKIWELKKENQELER
Assay: two-hybrid library CCNG1;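 also: natural log of median RNA to DNA barcode read ratio; higher means stronger binding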
# reported interaction score; entries follow
# output: bare number, no unit

Record excerpt, results attached:
> print(dat)
                                     binder           endpoint  assay.value
1   DEIQELEKEIEELERENWELEKENQELER [4H19-bH]  interaction score        0.299
2  DKIQELKKKIEELKRKNWELKKKNQELKR [4H2944-bH]  interaction score       -0.773
3  DKIQELKKKIEELKRKNWELKKEIQELER [4H2937-bH]  interaction score        0.828

# context switch: different binder, same interaction score
Please report the recorded interaction score for DEIQELEKKIEELKRENWELEKKIQELKR [4H342-bH] .
1.47
